# Tested on: K-562 leukemia
# assay-procedure: NCI-60 one-dose screen, 48 h (100 = growth as untreated, 0 = no growth, -100 = all killed)
# experimental-setup: 10 µM unless noted
The panel holds about 83,000 compounds, 20% with a hit somewhere; the sample as a whole holds those more often. Where a SMILES comes first, the peptide text is derived from it. [ ]: non-standard residue; d: D form. ξ: configuration not given here. ξD = NC(CC(=O)O)C(=O)O
Grouping rule (growth): range 1: < 10%; range 2: ≥ 10% and < 70%; range 3: ≥ 70%

# example entries with known answers
O=C1CSC(=S)N1Cc1cccnc1    range 1
CCOC(=O)C1=NN(c2ccccc2)C(=O)/C1=C\N1C(=O)/C(=C/c2cccc(O)c2)SC1=S    range 3
O=C/C=C/c1ccc([N+](=O)[O-])cc1    range 3

Q) Lab log: `CSc1nc(C)c(C(=O)CCN2CCN(c3ccccn3)CC2)s1` — assign growth category
A) range 3

Q) Also need `Oc1ccc(Nc2ccc3ccccc3c2)cc1` , thanks.
A) range 2

Q) Same again, this time with CCCCCCCCCCCC(=O)OC(C)C(=O)NCCCC (stereo not drawn)
A) range 3

Q) One more compound: CCCCCCCCC(=O)OCCCC(CCC(CCC1CCCO1)OC(=O)CCCCCCCC)OC(=O)CCCCCCCC (stereo not drawn)
A) range 3

Q) Please do the same for `CC(=O)c1ccc2c(c1)CCc1ccccc1-2` as well.
A) range 3

Q) Same thing, different compound: `CN(C)c1ccc2cc3c(cc2c1)Oc1ccccc1N3.[Cl][Zn][Cl]`
A) range 2

Q) Next record, please: `c1ccc2sc(SSN3CC4CCC(CC4)C3)nc2c1`
A) range 3

Q) Now the compound `CCOC(=O)/C(=C\c1ccc2ccccc2c1)P(=O)(OCC)OCC`
A) range 2

Q) Also need `Oc1ccc2c(c1)CCc1ccccc1-2` , thanks.
A) range 3

Q) Entry CC(C)=CCCC(C)C1=C(O)C(=O)C(C)=CC1=O (stereo not drawn) please
A) range 1

Q) Follow-up item: `CCOC(=O)c1cc(CC)sc1NC(=O)CC(C)=O`
A) range 2

Q) Same question for NCC(=O)NC(CC(=O)O)C(=O)O (stereo not drawn) (H-Gly-[ξD]-OH) please.
A) range 3

Q) Can you handle `CCOc1cc(F)c([N+](=O)[O-])cc1[N+](=O)[O-]` next?
A) range 1

Q) Try this compound next: `O=C1C=CC(=O)N1C1CCCCCCCCCCC1`
A) range 1

###

# System: SNB-19 CNS
# assay-procedure: NCI-60 one-dose screen, 48 h (100 = growth as untreated, 0 = no growth, -100 = all killed)
# experimental-setup: 10 µM unless noted
This is part of a sample that, as a whole, favours compounds with a hit. Of some 83,000 tested, about 20% had one in any assay.
Overview of reported growth across a group of compounds:
Value expressed in %; do not type the unit.

Worked examples, 5 compounds total:
CCN(CC)CCNc1ccc([N+](=O)[O-])c2sc3ccccc3c(=O)c12    34.8
CC(C)(C)CC(C)(C)c1ccc(OCCOCCSC(=N)N)cc1    73.6
C/C(=N/NC(N)=S)c1ccc(C)cc1    104
C(=N\Nc1ccc2ccccc2n1)/c1ccccn1    21.3
COc1ccc(NC(=O)/C(=C/N2C(=O)/C(=C/c3ccc(OC)c(OC)c3)NC2=S)C(C)=O)cc1    73

Here is the next item to consider.
Q) Find growth (SNB-19 CNS) for the entry `O=C1Nc2ccc(Br)cc2C1=O`
A) 101

###

# Tested on: SN12C renal
# assay-procedure: NCI-60 one-dose screen, 48 h (100 = growth as untreated, 0 = no growth, -100 = all killed)
# experimental-setup: 10 µM unless noted
# Description: Growth inhibition of the SN12C human tumor cell line is measured as a screen for anti-cancer activity. Cells are grown in 96 well plates and exposed to the test compound for 48 hours. Compounds are tested at a single concentration, which is 10^-5 M for most compounds. The reported endpoint is percent growth (GI% or GIPRCNT), where numbers from 0 - 100% represent growth inhibition, and numbers from -100% - 0 represent cell death. For example, a value of 40 represents 60% growth inhibition. […]
Compounds without any hit were thinned out: in the full panel of roughly 83,000, 20% have a hit.
assay-metric: growth (%)
Express it in %; write the number only.

NC(=Nc1nc(-c2ccccn2)cc2ccccc12)c1ccccn1    26.2
CCCCCCCCCCCC[N+]1(CCCCCCCCCCCC)CCCC(C)C1 (stereo unspecified)    -72.4
CCN1CCCC(Nc2cc(C)nc(/N=C(/N)Nc3ccc(Cl)c(Cl)c3)n2)C1 (stereo unspecified)    1.64
NC(=S)Nc1ccc2c(c1)Cc1ccccc1-2    89.4
O/N=C1\c2ccccc2-c2ccc(F)cc21    94.4

Proceeding to the next compound to report its growth.
Q) Please give the measured growth for this compound: `CCOC(=O)/C(=C\c1ccc2ccccc2c1)P(=O)(OCC)OCC`
A) 17

###

# System: HS 578T breast
# assay-procedure: NCI-60 one-dose screen, 48 h
# experimental-setup: 10 µM unless noted
Compounds without any hit were thinned out: in the full panel of roughly 83,000, 20% have a hit. Activity calls are given as the source filed them. The calls were made as follows: active = growth percent below 10; inactive = the rest.
Select the matching outcome among 1.0 (active), 0.0 (inactive)

CC1(O)CCCCCC1    0.0

Q) Short answer needed: outcome of this test for N#CC(I)CS(=O)(=O)c1ccccc1 (configuration not stated) ?
A) 0.0

Q) Can you handle `CCNc1nnnn1CC` next?
A) 0.0

Q) # repeat for OC(c1cc(C23CC4CC(CC(C4)C2)C3)nc2c(Cl)cc(Cl)cc12)C1CCCCN1 (configuration not stated)
A) 1.0

Q) How about this compound: NC(CS/C(Cl)=C/Cl)C(=O)O (configuration not stated)
A) 0.0

Q) Next up: `CCOc1cc(F)c([N+](=O)[O-])cc1[N+](=O)[O-]`
A) 0.0

Q) And for CCOC(=O)C1(C)CCCC1N (configuration not stated) ?
A) 0.0

###

# Tested on: LOX IMVI melanoma
# assay-procedure: NCI-60 one-dose screen, 48 h
# experimental-setup: 10 µM
The panel holds about 83,000 compounds, 20% with a hit somewhere; the sample as a whole holds those more often. The source made the active and inactive calls. Rule for the calls: active = growth percent below 10; inactive = the rest.
Result category, one only: Y for active, N for inactive

Oc1ccc(Cl)cc1C(c1cc(Cl)ccc1O)C(Cl)(Cl)Cl    Y
NC1=C(Br)C(=O)c2ncccc2C1=O    Y
CC[n+]1ccc(Nc2ccc(NC(=O)c3ccc(Nc4cc[n+](CC)c5ccc([N+](=O)[O-])cc45)cc3)cc2)cc1    N
OC(CSc1ccccc1)CN1CCN(c2ccc(Cl)cc2)CC1 (stereo not given)    N
Cc1cc(C(=C2C=CC(=Nc3ccccc3)C=C2)c2ccc(Nc3ccccc3)cc2)ccc1N    Y
Nc1nc2ncc(CNc3ccc(C(=O)NC(CCC(=O)NC(CCC(=O)NC(CCC(=O)NC(CCC(=O)NC(CCC(=O)O)C(=O)O)C(=O)O)C(=O)O)C(=O)O)C(=O)O)cc3)nc2c(=O)[nH]1 (stereo not given)    N
COc1cc(NCc2ccc3nc(N)nc(N)c3c2C)cc(OC)c1OC (tested in a mixture with another compound)    N
COc1ccc(NC(=O)/C(=C/N2C(=O)/C(=C/c3ccc(OC)c(OC)c3)NC2=S)C(C)=O)cc1    N
CCOC(=O)NC(/C=C/c1ccccc1)NC(=O)OCC    N
CCN(CC)CC(O)c1cc(-c2ccc(Cl)cc2)nc2cc(Cl)ccc12 (stereo not given)    N

Q) How did this test come out for `O=C1C=CC(O)=CC1=P(c1ccccc1)(c1ccccc1)c1ccccc1` ?
A) N

Q) Next molecule: `NC(=S)N/N=C\c1nccc2c(N)cccc12`
A) Y

Q) Same question, CC1CC(C)(C)OB(OC(C)CC(C)(C)OB2OC(C)CC(C)(C)O2)O1 (stereo not given) this time
A) N

Q) One more molecule: CCCCC(CCc1ccc([N+](=O)[O-])cc1)(C(C)=O)C(=O)OCC (stereo not given)
A) N

Q) # iterate: CCC1CCCCN1C(=S)N/N=C(\C)c1ccccn1 (stereo not given)
A) Y

Q) Thanks! And `NNc1cccc([N+](=O)[O-])c1` ?
A) N

Q) And for CC1(C)OC2C(COC(c3ccccc3)(c3ccccc3)c3ccccc3)OC(c3c[nH]c4c(N)ncnc34)C2O1 (stereo not given) ?
A) N

Q) Field entry: CCN1CCCC(Nc2cc(C)nc(/N=C(/N)Nc3ccc(Cl)c(Cl)c3)n2)C1 (stereo not given)
A) Y

Q) Quick one: Oc1c(C(Nc2ccccc2)c2ccccc2)ccc2cccnc12 (stereo not given)
A) N

Q) Moving on to the next molecule: `S=C1SCN(Cc2cccs2)CN1Cc1cccs1`
A) N

###

# Test system: SN12C renal
# assay-procedure: NCI-60 one-dose screen, 48 h (100 = growth as untreated, 0 = no growth, -100 = all killed)
# experimental-setup: 10 µM unless noted
The panel holds about 83,000 compounds, 20% with a hit somewhere; the sample as a whole holds those more often.
assay-metric: growth (%)
Kindly provide the numeric value in % only, without the unit symbol.

Here is how some compounds turned out for growth.
OC(CSc1ccccc1)CN1CCN(c2ccc(Cl)cc2)CC1 (stereo not drawn)    94.4
CCCCCCCCCCCC1N=C(N)N=C(N)N1c1cccc(Br)c1 (stereo not drawn)    8.08
Clc1ccc(Cc2nc3ccccc3s2)cc1    86.1
Nc1cccc2cccc([N+](=O)[O-])c12    107
c1ccc2sc(SSN3CC4CCC(CC4)C3)nc2c1    104
COC(=O)C(=[N+]=[N-])C(=O)c1ccc([N+](=O)[O-])o1    90.9
OC(c1cc(-c2ccc(Cl)cc2)nc2c(Cl)cccc12)C1CCCCN1 (stereo not drawn)    -70.3
Cc1cccc2c(N)c3ccccc3nc12    -9.63
C[n+]1ccccc1C[n+]1ccccc1    105
COc1ccc2c(c1OC)OCC(CN(C)C)C2=O (stereo not drawn)    98.5

Q) Sample `CC/C(=C(/CC)c1ccc(O)cc1)c1ccc(O)cc1` — what was its growth?
A) 76

Q) Proceed to `CCOC(=O)c1c(C)[nH]c2ccc(O)cc12`
A) 98.9

Q) Continue with `O=C(CCl)N(c1ccccc1)c1ccccc1`
A) 99.6
